Biological target: 5-HT2A receptor (Homo sapiens)
Sequence (P28223 whole entry): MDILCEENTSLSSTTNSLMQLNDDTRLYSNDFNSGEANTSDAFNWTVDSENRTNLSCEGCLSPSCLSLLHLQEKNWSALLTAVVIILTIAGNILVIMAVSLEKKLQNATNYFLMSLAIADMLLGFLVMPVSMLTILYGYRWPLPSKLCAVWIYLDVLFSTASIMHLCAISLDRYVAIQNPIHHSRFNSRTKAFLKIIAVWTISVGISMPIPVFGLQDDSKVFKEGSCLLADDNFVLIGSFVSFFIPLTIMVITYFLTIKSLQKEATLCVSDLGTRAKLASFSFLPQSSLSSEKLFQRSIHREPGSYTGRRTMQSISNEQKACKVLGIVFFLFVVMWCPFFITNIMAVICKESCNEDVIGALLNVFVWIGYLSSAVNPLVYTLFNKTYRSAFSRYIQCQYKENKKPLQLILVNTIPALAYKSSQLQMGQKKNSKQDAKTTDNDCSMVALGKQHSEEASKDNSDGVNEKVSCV
measurement-label: pKi
Answers are plain numbers, as −log10 of the molar value.

I'd like to know its pKi. The compound in question is COc1c(O)ccc2c1CN1CCc3sc(C)cc3[C@@H]1C2 [AS003]
5.97

====

Target: dopamine D1 receptor (Macaca mulatta)
Sequence (O77680 whole entry): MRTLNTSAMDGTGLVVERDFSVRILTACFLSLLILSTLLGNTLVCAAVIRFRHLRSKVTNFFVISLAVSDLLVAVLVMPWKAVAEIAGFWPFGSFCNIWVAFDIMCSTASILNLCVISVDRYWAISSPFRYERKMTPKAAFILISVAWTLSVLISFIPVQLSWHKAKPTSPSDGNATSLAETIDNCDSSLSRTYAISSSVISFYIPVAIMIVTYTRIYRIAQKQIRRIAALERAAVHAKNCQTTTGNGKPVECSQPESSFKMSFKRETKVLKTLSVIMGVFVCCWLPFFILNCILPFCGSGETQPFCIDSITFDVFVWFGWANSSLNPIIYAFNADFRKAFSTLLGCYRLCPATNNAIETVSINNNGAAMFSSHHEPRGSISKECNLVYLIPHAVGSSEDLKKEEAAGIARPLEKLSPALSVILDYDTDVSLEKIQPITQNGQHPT
Test: Radioligand binding affinity on dopamine D1 receptor ([3H]-SCH23390)
Details: D1 receptor protein expressed in HEK-293 cells
measurement-label: log10 IC50 (log10 of the value in µM)
Log scale reminder: IC50 in µM, then log10 taken.

# annotated cases, reported log10 IC50 shown
COc1c(O)ccc2c1CN1CCc3sc(C)cc3[C@@H]1C2    -1.13
COc1ccc2c(c1OC)CN1CCc3sc(C)cc3[C@@H]1C2    -0.15
CCc1cc2c(s1)C[C@H]1c3cc(O)c(OC)cc3CCN1C2    -1.32

Give log10 IC50 for each listed item.
1. COc1ccc(OC)c2c1C[C@H]1c3cc(C)sc3CCN1C2
2. COc1c(N)ccc2c1CN1CCc3sccc3[C@@H]1C2
3. COc1cc2c(cc1O)[C@@H]1Cc3sc(CCCCl)cc3CN1CC2
4. COc1cc2c(cc1O)[C@@H]1Cc3sccc3CN1CC2

[-0.38, 0.18, -0.84, -0.76]

Give log10 IC50 for each listed item.
1. COc1cc2c(cc1O)[C@@H]1Cc3sc(CCCCCl)cc3CN1CC2
2. CCCc1cc2c(s1)C[C@H]1c3cc(O)c(OC)cc3CCN1C2
3. CCc1cc2c(s1)CCN1Cc3c(ccc(O)c3OC)C[C@@H]21
4. COc1c(O)ccc2c1CN1CCc3sc(C)cc3[C@H]1C2
5. CCCCc1cc2c(s1)C[C@H]1c3cc(O)c(OC)cc3CCN1C2

1. -0.53
2. -0.95
3. -1.06
4. -0.64
5. -0.95

====

Record form. Attribute: D2 receptor inhibition %. Fill in for each entry.
Target: dopamine D2 receptor (Rattus norvegicus, UniProt P61169)
Sequence (P61169 whole entry): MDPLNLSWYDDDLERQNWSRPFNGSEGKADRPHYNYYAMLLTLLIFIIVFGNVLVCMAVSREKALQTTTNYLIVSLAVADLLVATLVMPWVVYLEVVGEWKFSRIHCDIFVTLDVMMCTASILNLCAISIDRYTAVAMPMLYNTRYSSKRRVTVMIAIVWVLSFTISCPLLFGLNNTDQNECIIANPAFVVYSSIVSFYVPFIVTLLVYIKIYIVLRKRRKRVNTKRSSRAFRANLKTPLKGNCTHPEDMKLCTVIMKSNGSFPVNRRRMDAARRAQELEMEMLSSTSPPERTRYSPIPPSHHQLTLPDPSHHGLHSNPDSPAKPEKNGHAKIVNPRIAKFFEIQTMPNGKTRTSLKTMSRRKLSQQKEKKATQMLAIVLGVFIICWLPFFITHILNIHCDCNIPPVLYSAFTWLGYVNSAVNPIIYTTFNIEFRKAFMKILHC
Experiment: Radioligand binding affinity on dopamine D2 receptor ([3H]Spiperone); further: test concentration or dose not given here
Details: D2 receptor protein expressed in HEK-293 cells
Answers are plain numbers, in %.

CCc1cc2c(s1)CCN1Cc3c(ccc(O)c3OC)C[C@@H]21 [AS005]    62.98

Give D2 receptor inhibition % for each listed item.
1. CCc1cc2c(s1)C[C@H]1c3cc(O)c(OC)cc3CCN1C2 [DS003]
2. CCCc1cc2c(s1)C[C@H]1c3cc(O)c(OC)cc3CCN1C2 [DS005]
3. COc1c(N)ccc2c1CN1CCc3sccc3[C@@H]1C2 [AS050]
4. COc1cc2c(cc1O)[C@@H]1Cc3sc(CCCl)cc3CN1CC2 [DS013]
5. COc1c(O)ccc2c1CN1CCc3sc(C)cc3[C@@H]1C2 [AS003]
6. CCCCc1cc2c(s1)C[C@H]1c3cc(O)c(OC)cc3CCN1C2 [DS007]
7. COc1c(O)ccc2c1CN1CCc3sc(C)cc3[C@H]1C2 [AS004]
8. COc1cc2c(cc1O)[C@@H]1Cc3sc(CCCCl)cc3CN1CC2 [DS015]

98.50
96.31
22.63
98.37
40.31
99.53
6.97
97.19

I'd like to know its D2 receptor inhibition %. The compound in question is COc1cc2c(cc1O)[C@@H]1Cc3sc(CCC(C)C)cc3CN1CC2 [DS008]
90.45
